Ref: paper PMC10537368

protocol summary: Cell viability MTT assay on MCF-10A normal cells
Format: cell-based
condition: human, MCF-10A mammary gland epithelial normal cells, MCF-10A cells, four days of incubation
Quick reference for viability at 4 days, 50 µM among some compounds
observation type: viability at 4 days, 50 µM (%)

[
  {
    "compound": "Cc1ccc(C2CC(c3ccc(NC(=O)Cn4c(-c5ccc(Cl)cc5)cc(-c5ccc(Cl)cc5)c(C#N)c4=O)cc3)=NN2)c(C)c1 (stereo not drawn)",
    "scale unit": "%",
    "assay value": 92
  },
  {
    "compound": "COc1ccc(-c2cc(-c3ccc(OC)c(OC)c3)c(C#N)c(=O)n2CC(=O)Nc2ccc(C3=NNC(c4ccc(OC)c(OC)c4)C3)cc2)cc1 (stereo not drawn)",
    "scale unit": "%",
    "assay value": 90
  },
  {
    "compound": "COc1ccc(C2CC(c3ccc(NC(=O)Cn4c(-c5ccc(Cl)cc5)cc(-c5ccc(Cl)cc5)c(C#N)c4=O)cc3)=NN2)cc1OC (stereo not drawn)",
    "scale unit": "%",
    "assay value": 91
  },
  {
    "compound": "N#Cc1c(-c2ccc(Cl)cc2)cc(-c2ccc(Cl)cc2)n(CC(=O)Nc2ccc(C3=NNC(c4ccc(Cl)cc4Cl)C3)cc2)c1=O (stereo not drawn)",
    "scale unit": "%",
    "assay value": 88
  },
  {
    "compound": "N#Cc1c(-c2ccc(Cl)cc2)cc(-c2ccc(Cl)cc2)n(CC(=O)Nc2ccc(C3=NNC(c4ccccc4)C3)cc2)c1=O (stereo not drawn)",
    "scale unit": "%",
    "assay value": 90
  },
  {
    "compound": "COc1ccc(C2CC(c3ccc(NC(=O)Cn4c(-c5ccc(OC)c(OC)c5)cc(-c5ccc(OC)c(OC)c5)c(C#N)c4=O)cc3)=NN2)cc1 (stereo not drawn)",
    "scale unit": "%",
    "assay value": 89
  }
]
